Molecular target: UniProt P21554
Sequence (P21554 whole entry): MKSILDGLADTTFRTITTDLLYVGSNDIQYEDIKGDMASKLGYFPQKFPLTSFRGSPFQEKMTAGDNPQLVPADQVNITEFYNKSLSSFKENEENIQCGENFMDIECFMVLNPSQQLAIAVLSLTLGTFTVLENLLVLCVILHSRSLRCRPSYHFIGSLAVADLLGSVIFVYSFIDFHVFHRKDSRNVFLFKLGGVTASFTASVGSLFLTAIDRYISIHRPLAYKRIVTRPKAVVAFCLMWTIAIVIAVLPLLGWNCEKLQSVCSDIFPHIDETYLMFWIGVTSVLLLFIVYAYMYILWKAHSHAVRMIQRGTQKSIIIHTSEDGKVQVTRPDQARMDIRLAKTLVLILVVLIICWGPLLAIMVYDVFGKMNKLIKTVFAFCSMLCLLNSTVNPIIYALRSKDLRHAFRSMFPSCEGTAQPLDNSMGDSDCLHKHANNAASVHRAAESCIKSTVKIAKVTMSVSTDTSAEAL
Assay: Displacement of [3H]CP-55940 from human CB1 receptor expressed in CHO cells at 10 uM by liquid scintillation counting
Assay type: cell-based
Recorded measurements of Activity, one per entry
reported metric: Activity

INSERT INTO results (compound_smiles, meas_value) VALUES
  ('CCCCCCN1C(=O)/C(=N\NC(=O)Cc2ccccc2)c2ccccc21', '98.2%'),
  ('CCCCCCN1C(=O)/C(=N/NS(=O)(=O)c2ccccc2)c2ccccc21', '< 40%'),
  ('CCCCCCN1C(=O)/C(=N\NC(=S)Nc2ccccc2)c2ccccc21', '49%'),
  ('O=C(N/N=C1\C(=O)N(CCC2CCCCC2)c2ccccc21)c1ccccc1', '96%'),
  ('O=C(N/N=C1\C(=O)N(CCC2CCCCC2)c2ccccc21)Nc1ccccc1', '< 40%');
